Tested on: P12-Ichikawa
Assay: cell viability relative to DMSO control; higher = less cytotoxic
Details: HPLM + 10% dialyzed FBS; 48 h; 46.1 µM
Recorded Endpoint: cell viability (%)
Give bare numbers, in %.

Some solved entries appear below for comparison.
| Molecular String | Recorded Endpoint | Val |
| --- | --- | --- |
| Cc1noc(N[S+](=O)([O-])c2ccc(N)cc2)c1C | cell viability | 117 |
| CC(=O)N(O)CCCCCNC(=O)CCC(=O)N(O)CCCCCNC(=O)CCC(=O)N(O)CCCCCN.C[S+](=O)([O-])O | cell viability | 9.61 |
| CCC(=O)N1CCN(CC1)C2=C(C=C(C=C2)N3C(=O)\C=C/C4=C3C5=CC(=CC=C5N=C4)C6=CN=C7C=CC=CC7=C6)C(F)(F)F | cell viability | 77 |

In the following, a different compound is considered.
Ask: Quick check: cell viability of `CC[C@H](C)C(=O)O[C@H]1C[C@@H](C)\C=C2\C=C/[C@H](C)[C@H](CC[C@@H]3C[C@@H](O)CC(=O)O3)[C@@H]12` ?
Reply: 46.8

Hey, just so you know, these numbers are from the supplement of paper PMC11451515.
